Item-by-item account of PBM 8-mer E-score
- Tested on: muMax20 (Max(13-93) K31hArg/K57hArg, M65Nle)
- protocol description: PBM 8-mer E-score (E-score (rank enrichment, -0.5 to 0.5)); higher = stronger preferential binding
The full ranking holds about 33,000 sequences; the median of “E-score (rank enrichment, -0.5 to 0.5)” is about -0.0068, and the highest 2% start at about 0.24. The entries come from a sample that favours the highest values as a whole.
quantity: PBM 8-mer E-score

| seq string | target desc | quantity | result |
| --- | --- | --- | --- |
| CTCCCAGC | muMax20 (Max(13-93) K31hArg/K57hArg, M65Nle) | PBM 8-mer E-score | -0.118 |
| TACTTCTA | muMax20 (Max(13-93) K31hArg/K57hArg, M65Nle) | PBM 8-mer E-score | 0.272 |
| ATCAATTA | muMax20 (Max(13-93) K31hArg/K57hArg, M65Nle) | PBM 8-mer E-score | 0.229 |
| GATGATTA | muMax20 (Max(13-93) K31hArg/K57hArg, M65Nle) | PBM 8-mer E-score | 0.0475 |
| GAAGAGTC | muMax20 (Max(13-93) K31hArg/K57hArg, M65Nle) | PBM 8-mer E-score | 0.089 |
| CATGATAA | muMax20 (Max(13-93) K31hArg/K57hArg, M65Nle) | PBM 8-mer E-score | 0.263 |
| GTTAATAA | muMax20 (Max(13-93) K31hArg/K57hArg, M65Nle) | PBM 8-mer E-score | 0.227 |
| ATCACCAG | muMax20 (Max(13-93) K31hArg/K57hArg, M65Nle) | PBM 8-mer E-score | -0.0679 |
| CAAAAGGC | muMax20 (Max(13-93) K31hArg/K57hArg, M65Nle) | PBM 8-mer E-score | 0.0129 |
| AGGGGTCG | muMax20 (Max(13-93) K31hArg/K57hArg, M65Nle) | PBM 8-mer E-score | -0.0534 |
| ACATGTTA | muMax20 (Max(13-93) K31hArg/K57hArg, M65Nle) | PBM 8-mer E-score | 0.241 |
| AGTGCCTA | muMax20 (Max(13-93) K31hArg/K57hArg, M65Nle) | PBM 8-mer E-score | -0.109 |
| AATGAATG | muMax20 (Max(13-93) K31hArg/K57hArg, M65Nle) | PBM 8-mer E-score | 0.259 |
| CAACAAAA | muMax20 (Max(13-93) K31hArg/K57hArg, M65Nle) | PBM 8-mer E-score | 0.0937 |
| AGTACACA | muMax20 (Max(13-93) K31hArg/K57hArg, M65Nle) | PBM 8-mer E-score | 0.22 |
| GGGAGGGA | muMax20 (Max(13-93) K31hArg/K57hArg, M65Nle) | PBM 8-mer E-score | 0.0486 |
| ACCACTAG | muMax20 (Max(13-93) K31hArg/K57hArg, M65Nle) | PBM 8-mer E-score | 0.0698 |
| ACTGAATA | muMax20 (Max(13-93) K31hArg/K57hArg, M65Nle) | PBM 8-mer E-score | 0.0784 |
| ACGACACA | muMax20 (Max(13-93) K31hArg/K57hArg, M65Nle) | PBM 8-mer E-score | -0.0466 |
| CTTAATAA | muMax20 (Max(13-93) K31hArg/K57hArg, M65Nle) | PBM 8-mer E-score | 0.0902 |
| CATGATTA | muMax20 (Max(13-93) K31hArg/K57hArg, M65Nle) | PBM 8-mer E-score | 0.281 |
| ATTAATAC | muMax20 (Max(13-93) K31hArg/K57hArg, M65Nle) | PBM 8-mer E-score | 0.266 |
| GCATGTTA | muMax20 (Max(13-93) K31hArg/K57hArg, M65Nle) | PBM 8-mer E-score | 0.116 |
| AAAAGGCC | muMax20 (Max(13-93) K31hArg/K57hArg, M65Nle) | PBM 8-mer E-score | 0.294 |
| CATGAATG | muMax20 (Max(13-93) K31hArg/K57hArg, M65Nle) | PBM 8-mer E-score | 0.126 |
| AAAGGCCC | muMax20 (Max(13-93) K31hArg/K57hArg, M65Nle) | PBM 8-mer E-score | 0.105 |
| CCCGAGGA | muMax20 (Max(13-93) K31hArg/K57hArg, M65Nle) | PBM 8-mer E-score | -0.233 |
| GGGGGTGA | muMax20 (Max(13-93) K31hArg/K57hArg, M65Nle) | PBM 8-mer E-score | -0.107 |
| AAAGGCCG | muMax20 (Max(13-93) K31hArg/K57hArg, M65Nle) | PBM 8-mer E-score | 0.275 |
| AATGAATT | muMax20 (Max(13-93) K31hArg/K57hArg, M65Nle) | PBM 8-mer E-score | 0.238 |
| ATCAATTG | muMax20 (Max(13-93) K31hArg/K57hArg, M65Nle) | PBM 8-mer E-score | 0.262 |
| ACATGTTC | muMax20 (Max(13-93) K31hArg/K57hArg, M65Nle) | PBM 8-mer E-score | 0.164 |
| AGATGTTG | muMax20 (Max(13-93) K31hArg/K57hArg, M65Nle) | PBM 8-mer E-score | -0.125 |
| CAGGCGCC | muMax20 (Max(13-93) K31hArg/K57hArg, M65Nle) | PBM 8-mer E-score | -0.0488 |
| ATTAATCG | muMax20 (Max(13-93) K31hArg/K57hArg, M65Nle) | PBM 8-mer E-score | 0.0839 |
| ATTAATAA | muMax20 (Max(13-93) K31hArg/K57hArg, M65Nle) | PBM 8-mer E-score | 0.274 |
| GATGAATC | muMax20 (Max(13-93) K31hArg/K57hArg, M65Nle) | PBM 8-mer E-score | 0.0791 |
| AATGATAA | muMax20 (Max(13-93) K31hArg/K57hArg, M65Nle) | PBM 8-mer E-score | 0.11 |
| AGGGCGAT | muMax20 (Max(13-93) K31hArg/K57hArg, M65Nle) | PBM 8-mer E-score | -0.119 |
